Target: Met (Homo sapiens)
Sequence (P08581 25-1390): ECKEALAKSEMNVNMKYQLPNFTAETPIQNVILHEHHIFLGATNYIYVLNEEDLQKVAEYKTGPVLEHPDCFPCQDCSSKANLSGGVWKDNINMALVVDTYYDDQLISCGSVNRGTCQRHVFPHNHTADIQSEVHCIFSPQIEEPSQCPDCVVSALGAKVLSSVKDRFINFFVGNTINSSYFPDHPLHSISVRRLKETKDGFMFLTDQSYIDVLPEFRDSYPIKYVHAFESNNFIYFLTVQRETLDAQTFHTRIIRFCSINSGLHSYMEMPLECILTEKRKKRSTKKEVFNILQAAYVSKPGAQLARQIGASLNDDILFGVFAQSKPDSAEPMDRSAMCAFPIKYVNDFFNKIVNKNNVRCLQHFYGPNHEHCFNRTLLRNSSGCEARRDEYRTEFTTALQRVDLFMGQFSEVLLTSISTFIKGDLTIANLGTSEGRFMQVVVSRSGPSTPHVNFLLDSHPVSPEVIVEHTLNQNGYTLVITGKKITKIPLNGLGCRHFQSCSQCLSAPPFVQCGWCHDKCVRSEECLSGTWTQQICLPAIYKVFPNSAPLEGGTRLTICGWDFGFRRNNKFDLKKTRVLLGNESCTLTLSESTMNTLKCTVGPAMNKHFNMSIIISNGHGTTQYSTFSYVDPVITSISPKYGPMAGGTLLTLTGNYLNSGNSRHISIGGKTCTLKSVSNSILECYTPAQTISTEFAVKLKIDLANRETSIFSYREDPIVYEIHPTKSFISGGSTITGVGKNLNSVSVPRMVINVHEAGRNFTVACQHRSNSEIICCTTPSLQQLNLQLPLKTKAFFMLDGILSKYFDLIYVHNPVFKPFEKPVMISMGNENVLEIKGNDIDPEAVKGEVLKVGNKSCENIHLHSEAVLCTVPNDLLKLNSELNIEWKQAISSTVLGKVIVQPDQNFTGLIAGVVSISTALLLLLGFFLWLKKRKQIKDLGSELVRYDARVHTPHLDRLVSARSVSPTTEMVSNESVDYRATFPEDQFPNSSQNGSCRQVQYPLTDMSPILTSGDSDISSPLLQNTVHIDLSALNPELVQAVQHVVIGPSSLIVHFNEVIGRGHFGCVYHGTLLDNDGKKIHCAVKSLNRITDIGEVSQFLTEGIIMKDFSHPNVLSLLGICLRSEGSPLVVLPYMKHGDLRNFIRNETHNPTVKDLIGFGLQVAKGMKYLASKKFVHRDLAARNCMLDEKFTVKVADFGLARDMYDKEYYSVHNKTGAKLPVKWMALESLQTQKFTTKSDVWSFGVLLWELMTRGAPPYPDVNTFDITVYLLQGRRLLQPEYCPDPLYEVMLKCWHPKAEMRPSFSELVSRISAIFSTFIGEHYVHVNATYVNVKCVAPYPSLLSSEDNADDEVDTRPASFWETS
Experiment: Met autophosphorylation ELISA in PC-3 cells
Type: cell-based
Set-up: endogenous in cells; host or cells: PC-3 prostate cancer cells (ATCC #CRL-1435)
Conditions: Table 3 Cellular Activities, HGF-stimulated, phospho-Met ELISA, read-out: c-Met IC50
pIC50: −log10 of the molar value.
assay_metric: pIC50

Take a look at these entries with their results.
COc1cc2nccc(Oc3ccc(NC(=O)c4cnc(C)c(-c5ccsc5)c4O)cc3F)c2nc1OC
≥ 7.00
COc1cc2nccc(Oc3ccc(NC(=O)c4cnc(C)c(-c5ccc(F)cn5)c4O)cc3F)c2nc1OC
≥ 7.00
COc1cc2nccc(Oc3ccc(NC(=O)c4c5n(c(C)c(-c6ccco6)c4=O)CCOC5)cc3F)c2nc1OC
≥ 7.00
COc1cc2nccc(Oc3ccc(NC(=O)c4cccn(-c5ccncc5)c4=O)cc3F)c2nc1OC
≥ 7.00
COCCOc1cc2nccc(Oc3ccc(NC(=O)c4ccc(C)n(-c5ccc(F)cn5)c4=O)cc3F)c2nc1OC
≥ 7.00

# pIC50 (compound: COc1cc2nccc(Oc3ccc(NC(=O)c4c(C)nc(C)c(-c5cc(C(F)(F)F)nn5C)c4O)cc3F)c2nc1OC ) is ≥ 7.00

Reported pIC50 ( COc1cnc2c(Oc3ccc(NC(=O)c4cnc(C)c(-c5ccsc5)c4O)cc3F)ccnc2c1 ) = ≥ 7.00
